Where do the numbers come from? From patent US10800741B2.

Test system: RT112/84
Assay: In vitro growth inhibition of RT112/84 cells
Format: cell-based
Conditions: Homo sapiens, FGFR3-TACC3
Below, each entry is listed alongside its reported IC50.

{"molecule": "CN1CCN(CCCOc2cc3nccc(Oc4ccc(NC(=O)Nc5cc(C(C)(C)C)n[nH]5)c(Cl)c4Cl)c3cc2C(N)=O)CC1", "IC50 (nM)": 9.76}
{"molecule": "CCN1CCN(c2ccc(Nc3cc(N(C)C(=O)Nc4c(Cl)c(OC)cc(OC)c4Cl)ncn3)cc2)CC1 [BGJ398, reference compound]", "IC50 (nM)": 8.12}
{"molecule": "COc1cc2nccc(Oc3ccc(NC(=O)Nc4cc(C(C)(C)C)nn4C)c(Cl)c3Cl)c2cc1C(N)=O", "IC50 (nM)": 10.1}
{"molecule": "COCCOc1cc2nccc(Oc3ccc(NC(=O)Nc4cc(C(C)(C)C)n[nH]4)c(Cl)c3)c2cc1NC(C)=O", "IC50 (nM)": 25.6}
{"molecule": "COc1cc2nccc(Oc3ccc(NC(=O)Nc4cc(C(C)(C)C)n[nH]4)c(Cl)c3)c2cc1C(N)=O", "IC50 (nM)": 31.5}

====

Tested on: KATO III (FGFR2 amp)
Experiment: In vitro growth inhibition of KATO III tumor cells (MTT/CCK8)
Type: cell-based, Human
Conditions: Homo sapiens, KATO III; in vitro growth inhibition (or induction of apoptosis), cells cultured 3 to 5 days, MTT (CCK8); read-out: IC50 KATO III (FGFR2 amp)
readoutName: log10 IC50 (log10 of the value in nM)

{"compound": "COc1cc2nccc(Oc3ccc(NC(=O)Nc4cc(C(C)(C)C)n[nH]4)c(Cl)c3)c2cc1NC(C)=O", "target": "KATO III (FGFR2 amp)", "log10 IC50": -0.51}
{"compound": "COc1cc2nccc(Oc3ccc(NC(=O)Nc4cc(C(C)(C)C)on4)c(Cl)c3)c2cc1NC(C)=O", "target": "KATO III (FGFR2 amp)", "log10 IC50": 0.06}
{"compound": "CC(C)(C)c1cc(NC(=O)Nc2ccc(Oc3ccnc4cc(OCCN5CCCCC5)c(C(N)=O)cc34)c(Cl)c2Cl)[nH]n1", "target": "KATO III (FGFR2 amp)", "log10 IC50": 0.24}
{"compound": "COc1cc2nccc(Oc3ccc(NC(=O)Nc4cc(C(C)(C)C)n[nH]4)cc3Cl)c2cc1NC(C)=O", "target": "KATO III (FGFR2 amp)", "log10 IC50": 0.37}
{"compound": "CC(C)(C)c1cc(NC(=O)Nc2ccc(Oc3ccnc4cc(OCCCN5CCN(c6ccccc6)CC5)c(C(N)=O)cc34)cc2Cl)[nH]n1", "target": "KATO III (FGFR2 amp)", "log10 IC50": 1.83}
{"compound": "COc1cc2nccc(Oc3ccc(NC(=O)Nc4cc(C(C)(C)C)n[nH]4)cc3F)c2cc1NC(C)=O", "target": "KATO III (FGFR2 amp)", "log10 IC50": 0.12}
{"compound": "COc1cc2nccc(Oc3ccc(NC(=O)Nc4cc(C(C)(C)C)on4)cc3Br)c2cc1C(N)=O", "target": "KATO III (FGFR2 amp)", "log10 IC50": 0.80}
{"compound": "COc1cc2nccc(Oc3ccc(NC(=O)Nc4cc(C(C)(C)C)n[nH]4)cc3C)c2cc1C(N)=O", "target": "KATO III (FGFR2 amp)", "log10 IC50": 0.65}
{"compound": "CC(C)(C)c1cc(NC(=O)Nc2ccc(Oc3ccnc4cc(OCCCN5CCOCC5)c(C(N)=O)cc34)cc2Cl)[nH]n1", "target": "KATO III (FGFR2 amp)", "log10 IC50": 1.26}
{"compound": "CCN1CCN(c2ccc(Nc3cc(N(C)C(=O)Nc4c(Cl)c(OC)cc(OC)c4Cl)ncn3)cc2)CC1 [BGJ398, reference compound]", "target": "KATO III (FGFR2 amp)", "log10 IC50": -0.34}
{"compound": "COCCOc1cc2nccc(Oc3ccc(NC(=O)Nc4cc(C(C)(C)C)nn4C4CCN(C)CC4)c(Cl)c3)c2cc1NC(C)=O", "target": "KATO III (FGFR2 amp)", "log10 IC50": -0.39}
{"compound": "COc1cc2nccc(Oc3ccc(NC(=O)Nc4cc(C(C)(C)C)on4)c(C)c3)c2cc1C(N)=O", "target": "KATO III (FGFR2 amp)", "log10 IC50": 0.46}
{"compound": "CNC(=O)c1cc2c(Oc3ccc(NC(=O)Nc4cc(C(C)(C)C)nn4C)c(Cl)c3Cl)ccnc2cc1OC", "target": "KATO III (FGFR2 amp)", "log10 IC50": -0.39}
{"compound": "CNC(=O)c1cc2c(Oc3ccc(NC(=O)Nc4cc(C(C)(C)C)on4)c(Cl)c3)ccnc2cc1OC", "target": "KATO III (FGFR2 amp)", "log10 IC50": 0.33}
{"compound": "COc1cc2nccc(Nc3ccc(NC(=O)Nc4cc(C(C)(C)C)n[nH]4)c(Cl)c3)c2cc1C(N)=O", "target": "KATO III (FGFR2 amp)", "log10 IC50": 1.30}
{"compound": "COc1cc2nccc(Oc3ccc(NC(=O)Nc4cc(C(C)(C)C)no4)c(Cl)c3)c2cc1C(N)=O", "target": "KATO III (FGFR2 amp)", "log10 IC50": -0.08}
{"compound": "COc1cc2nccc(Oc3ccc(NC(=O)Nc4cc(C(C)(C)C)nn4C)c(Cl)c3Cl)c2cc1C(N)=O", "target": "KATO III (FGFR2 amp)", "log10 IC50": -0.74}
{"compound": "COc1cc2nccc(Nc3ccc(NC(=O)Nc4cc(C(C)(C)C)n[nH]4)cc3C)c2cc1C(N)=O", "target": "KATO III (FGFR2 amp)", "log10 IC50": 2.43}
{"compound": "COCCOc1cc2nccc(Oc3ccc(NC(=O)Nc4cc(C(C)(C)C)nn4C4CC4)cc3)c2cc1NC(C)=O", "target": "KATO III (FGFR2 amp)", "log10 IC50": -0.42}
{"compound": "CN1CCN(CCCOc2cc3nccc(Oc4ccc(NC(=O)Nc5cc(C(C)(C)C)n[nH]5)c(Cl)c4)c3cc2C(N)=O)CC1", "target": "KATO III (FGFR2 amp)", "log10 IC50": 0.47}
{"compound": "COc1cc2nccc(Nc3ccc(NC(=O)Nc4cc(C(C)(C)C)n[nH]4)cc3Cl)c2cc1C(N)=O", "target": "KATO III (FGFR2 amp)", "log10 IC50": 2.07}
{"compound": "COc1cc2nccc(Oc3ccc(NC(=O)Nc4cc(C(C)(C)C)n[nH]4)c(Cl)c3)c2cc1C(N)=O", "target": "KATO III (FGFR2 amp)", "log10 IC50": -0.62}
{"compound": "COc1cc2nccc(Oc3ccc(NC(=O)Nc4cc(C(C)(C)C)nn4C)c(Cl)c3)c2cc1C(N)=O", "target": "KATO III (FGFR2 amp)", "log10 IC50": -1.15}
{"compound": "COc1cc2nccc(Oc3ccc(NC(=O)Nc4cc(C(C)(C)C)n[nH]4)c(C)c3C)c2cc1C(N)=O", "target": "KATO III (FGFR2 amp)", "log10 IC50": 0.19}
{"compound": "COCCOc1cc2nccc(Oc3ccc(NC(=O)Nc4cc(C(C)(C)C)nn4C4CC4)cc3F)c2cc1NC(C)=O", "target": "KATO III (FGFR2 amp)", "log10 IC50": -0.52}
